Molecular target: T1, human IL-1RAcP on 293T/17-FR cells (human, UniProt Q9NPH3 21-570)
T1 sequence (looked up): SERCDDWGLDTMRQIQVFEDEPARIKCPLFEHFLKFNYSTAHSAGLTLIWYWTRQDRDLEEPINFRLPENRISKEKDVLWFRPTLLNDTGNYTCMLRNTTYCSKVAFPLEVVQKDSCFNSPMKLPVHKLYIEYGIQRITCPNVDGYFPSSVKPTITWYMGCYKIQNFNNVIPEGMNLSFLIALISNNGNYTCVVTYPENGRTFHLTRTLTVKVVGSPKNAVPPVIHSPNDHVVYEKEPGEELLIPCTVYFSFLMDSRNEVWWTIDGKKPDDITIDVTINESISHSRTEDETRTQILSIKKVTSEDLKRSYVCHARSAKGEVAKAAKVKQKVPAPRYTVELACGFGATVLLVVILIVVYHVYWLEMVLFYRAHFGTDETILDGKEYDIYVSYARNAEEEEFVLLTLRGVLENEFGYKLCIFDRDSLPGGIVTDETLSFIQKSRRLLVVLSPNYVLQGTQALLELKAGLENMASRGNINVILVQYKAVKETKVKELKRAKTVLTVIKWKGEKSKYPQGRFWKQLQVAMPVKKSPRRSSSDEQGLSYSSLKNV
Experiment: cell-based or functional assay
Entry flag: satisfied if functional reporter gene assay (% inhibition), 1 µg/mL mAb reaches 40%; not satisfied if it does not.

Input line: API: above_or_equal(metric=functional reporter gene assay (% inhibition), 1 µg/mL mAb, cutoff=40%) for item P013.S.02.B.E02 (antibody, V domains shown, rabbit monoclonal antibody; also called P013.A.00087.E09) VH: QSVEESGGRLVTPGTPLTLTCTVSGFSLNVYNMGWVRQAPGKGLEYIGIISSSGTTYYASWAKGRFTISKTSSTTVDLKITSLTTEDTATYFCARADGYTEGDYATYFNLWGQGTLVTVSS VL: DIVMTQTPASVSEPVGGTVTIKCQASQSITTWLAWYQQKPGQPPKLLIYQASALASGVSSRFIGSGYGTEFTLTISGVQSEDAATYYCQCTYGIGSGSSYGVAFGGGTEVVVK
Output line: not satisfied

Input line: API: above_or_equal(metric=functional reporter gene assay (% inhibition), 1 µg/mL mAb, cutoff=40%) for item P013.S.01.B.D05 (antibody, V domains shown, rabbit monoclonal antibody; also called P013.A.00085.G03) VH: EQSGGGAEGGLVKPGGSLELYCKASGFSLSSDAWICWVRQAPGKGLEWIGCIYAGSASNTYYATWVNGRFTLSRDIAQSTGCLQLNSLTAADTAMYYCARDRGYDDYGDITRLDLWGQGTLVTVSS VL: ALVLTQTPSPVSAAVGGTVTINCQASEDIYSNLAWFQQKPGQPPKLLIYRASTLASGVPSRFSGSGSGTEFTLTISGLQSDDAATYYCLGVYTYLSDLFFVFGGGTEVVVK
Output line: satisfied

Input line: API: above_or_equal(metric=functional reporter gene assay (% inhibition), 1 µg/mL mAb, cutoff=40%) for item P013.S.02.B.H02 (antibody, V domains shown, rabbit monoclonal antibody; also called P013.A.00015.B10) VH: QSLEESGGRLVTPGTPLTLTCTVSGFSLSSCAMIWVRQAPGKGLEWIGFIGRGGSTWYASWVNGRFTISKTSTTVDLKITSPTTEDTATYFCARDGDFSDYYTFNLWGQGTLVTVSS VL: DVVMTQTPASVSEPVGGTVTIKCQASQNIGSNLAWYQQKPGQPPKLLIYGASTLASGVPSRFSGSGSGTEFTLTISGVQSADATTYYCQCSGYDTTGVFPFGGGSEVVVR
Output line: not satisfied

Input line: API: above_or_equal(metric=functional reporter gene assay (% inhibition), 1 µg/mL mAb, cutoff=40%) for item P013.S.02.B.C01 (antibody, V domains shown, rabbit monoclonal antibody; also called P013.A.00109.C12) VH: QSVEESGGRLVTPGGSLTLTCTVSGFSLSVYAMGWFRQAPGKGLEWIGDIYTGSGSTWYASWAKGRFTISKTSTTVDLKITSPTTEDTATYFCAREIDAGYVGYGFNLWGQGTLVTVSS VL: AQALTQTPSSVSAAVGGTVTINCQSSQSVYSDYLVWYQQKPGQPPKLLIYQASKLASGVPSRFKGSGSGTQFTLTISGVQSDDAATYYCQATYSSTGWYRAFGGGTEVVVK
Output line: satisfied

The measured values listed here are drawn from patent US20190106487A1.
